# assay target: Perilipin-1 (Homo sapiens) + 1-acylglycerol-3-phosphate O-acyltransferase ABHD5 (Homo sapiens) (UniProt O60240+Q8WTS1)
# experiment notes: ABHD5-PLIN1 binding inhibitors, late-stage follow-up, counter-screen for ABHD5-PLIN5 interaction inhibitor project, biochemical, luminescence, dose response (AID 651766)
The source made the active and inactive calls. No rule for the calls is given here.
Outcome codes: active, inactive

compound: COc1cc(C)c2sc3ccccc3c(=O)c2c1NCCN(C)C
cat: inactive

compound: CC(=O)Cc1cc(O)c2ccccc2c1OC(=O)c1ccccc1
cat: active

compound: O=C(C[n+]1cccc(CNC(=O)c2ccc(OC(F)F)cc2)c1)Nc1cccc(C(F)(F)F)c1
cat: inactive

compound: COc1cc2c(cc1OC)C(C)N(CCc1ccc(Cl)cc1)CC2 (stereo not given)
cat: inactive

compound: CC1CCN(S(=O)(=O)c2ccc(NC(=O)Cc3cccs3)cc2)CC1
cat: active

compound: COc1ccccc1-c1cc(C(=O)NC2CCN(C)CC2)c2ccc(Cl)c(C)c2n1
cat: active

compound: CC(=O)Cc1cc(O)c2ccccc2c1OC(=O)c1ccc(Br)cc1
cat: active

compound: O=c1[nH]c(C2CCN(S(=O)(=O)c3ccc(S(=O)(=O)NC4CC4)cc3)CC2)nc2c1nnn2Cc1ccc(F)cc1
cat: active

compound: CCN(CC)CCN(CC(=O)Nc1c(C)cc(C)cc1C)C(=O)c1ccccc1
cat: active

compound: Cc1cc(C)c2nc(NNC(=O)c3ccc(S(=O)(=O)N4CCCC(C)C4)cc3)sc2c1 (stereo not given)
cat: active

Just for reference, PubChem BioAssay AID651766 is where these values come from.
